assay: NCI Yeast Anticancer Drug Screen. Data for the sgs1 mgt1 strain (AID 161);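 further: 0% = growth of cultures given vehicle only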; details: S. cerevisiae sgs1 mgt1 strain, at 50.0 µM, stronger effect = higher value
This is part of a sample that, as a whole, favours compounds with a hit. Of some 79,000 tested, about 15% had one in any assay.

>  <compound>
O=C1CCCC2OC2[C@H]2CCCCCC[C@@H]12 (stereo partly drawn)

>  <growth inhibition [%]>
4.8

$$$$
>  <compound>
CC1N=C(SCC(=O)c2ccc(Cl)cc2)N2C(C)N=C(SCC(=O)c3ccc(Cl)cc3)N12 (stereo not drawn)

>  <growth inhibition [%]>
-20.6

$$$$
>  <compound>
CC(CN1c2ccccc2Sc2ccccc21)N(C)CCO (stereo not drawn)

>  <growth inhibition [%]>
-4.05

$$$$
>  <compound>
O=C1c2ccccc2C(=O)N1CCCSc1ccccc1

>  <growth inhibition [%]>
-21.9

$$$$
>  <compound>
C=CCNCC(O)C(F)(F)C(F)(F)C(F)(F)C(F)(F)C(F)(F)C(F)(F)F (stereo not drawn)

>  <growth inhibition [%]>
32.1

$$$$
>  <compound>
CN(CCCCl)Cc1ccccc1

>  <growth inhibition [%]>
-24.7

$$$$
>  <compound>
CCOC(=O)C1=C(C)N(Cc2ccccc2)C(C)=C(C(=O)OCC)C1c1ccccc1O

>  <growth inhibition [%]>
20.1

$$$$
>  <compound>
COC(=O)c1cc(CC2Cc3cc4c(cc3C2)CCC4)cc2c1CCC2

>  <growth inhibition [%]>
-29.1

$$$$
